Below, each entry is listed with its recorded IC50.
# subject_of_test: Enoyl-[acyl-carrier-protein] reductase [NADPH] FabI (Staphylococcus aureus (strain MRSA252), UniProt Q6GI75)
# Sequence (Q6GI75 whole entry): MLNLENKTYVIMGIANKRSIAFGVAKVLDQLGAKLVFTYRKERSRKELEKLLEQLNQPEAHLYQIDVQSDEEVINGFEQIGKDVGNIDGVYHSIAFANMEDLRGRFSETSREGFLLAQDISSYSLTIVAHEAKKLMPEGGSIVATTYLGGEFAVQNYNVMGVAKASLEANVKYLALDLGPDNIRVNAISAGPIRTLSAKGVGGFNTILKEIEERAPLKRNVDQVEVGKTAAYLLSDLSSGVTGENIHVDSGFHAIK
# assay_method_text: Enzyme Inhibition Assay
# condition_label: pH 6.5; 30 °C
Value expressed in nM; do not type the unit.

CN1Cc2cc(C(=O)N3CCc4c([nH]c5ccccc45)C3)ccc2NC(CC(=O)O)C1=O (stereo not given)
7800
O=C(c1ccc(O)cc1)N1CCc2c([nH]c3ccccc23)C1
1400
Cn1c2c(c3ccccc31)CCN(C(=O)c1ccc(O)cc1)C2
1400

For O=C(c1ccccc1)N1CCc2c([nH]c3ccccc23)C1 the compound record lists IC50 as 2700

Value of measured IC50 for the entry COC(=O)CCCCn1c2c(c3ccccc31)CCN(C(=O)c1ccc(O)cc1)C2 : 4600
